Catalogue of pKd readings, one per entry.
assay target: Tumor susceptibility gene 101 protein (Homo sapiens)
Sequence (Q99816 whole entry, the tested form may be a part): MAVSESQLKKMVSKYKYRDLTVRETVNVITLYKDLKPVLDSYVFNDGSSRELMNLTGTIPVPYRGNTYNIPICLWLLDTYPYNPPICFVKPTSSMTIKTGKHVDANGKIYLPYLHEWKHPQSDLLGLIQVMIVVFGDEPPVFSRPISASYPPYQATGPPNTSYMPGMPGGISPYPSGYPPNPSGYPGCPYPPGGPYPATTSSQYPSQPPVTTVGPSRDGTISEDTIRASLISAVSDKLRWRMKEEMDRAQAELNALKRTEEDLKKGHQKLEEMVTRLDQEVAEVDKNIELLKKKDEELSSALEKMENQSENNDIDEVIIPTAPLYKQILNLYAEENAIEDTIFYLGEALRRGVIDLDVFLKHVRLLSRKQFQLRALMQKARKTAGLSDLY
assay details: Binding affinity to ubiquitin E2 variant domain of human Tsg101 by fluorescent anisotropy
pKd: −log10 of the molar value. Numbered stars: 1 amine (or outer) side, 2 acyl side, 3 side chain; on linkers, the order of the positions; unused ones are H or OH. Bridge positions count the residues as written; N and C are the ends. Square brackets hold non-standard residues; d marks the D form. Peptide text beside a SMILES is read from it. * marks the point of attachment. Fluorescein(5-NHCS) = O=C1OC2(c3ccc(O)cc3Oc3cc(O)ccc32)c2cc(NC(=S)*)ccc21; X3 = O=C(CN(CCCCCCC=[*:3])[*:1])[*:2]; X5 = O=C(CN(CCCCCC=[*:3])[*:1])[*:2]; X2 = O=C(CN(CC=[*:3])[*:1])[*:2]; NAllylGly = C=CCNCC(=O)O; Ava = NCCCCC(=O)O

Some compounds with known pKd results, for comparison:
| compound | pKd |
| --- | --- |
| C[C@@H]1NC(=O)[C@H]([C@@H](C)O)NC(=O)[C@@H]2CCCN2C(=O)[C@H](CCC(=O)O)NC(=O)CN(C(=O)CCCCNC(=S)Nc2ccc3c(c2)C2(OC3=O)c3ccc(O)cc3Oc3cc(O)ccc32)CCCCC/C=C/CN(CC(=O)N[C@@H](CCC(=O)O)C(N)=O)C(=O)[C@@H]2CCCN2C(=O)[C@@H]2CCCN2C1=O ({Fluorescein(5-NHCS)-Ava}-[X5]EPTAPP[X2]E-NH2; staple (E) 1-8) | < 3.30 |
| C=CCN(CC(=O)N1CCC[C@H]1C(=O)N[C@H](C(=O)N[C@@H](C)C(=O)N1CCC[C@H]1C(=O)N1CCC[C@H]1C(=O)N(CC=C)CC(=O)N[C@@H](CCC(=O)O)C(N)=O)[C@@H](C)O)C(=O)[C@@H]1CCCN1C(=O)CCCCNC(=S)Nc1ccc2c(c1)C1(OC2=O)c2ccc(O)cc2Oc2cc(O)ccc21 ({Fluorescein(5-NHCS)-Ava}-P[NAllylGly]PTAPP[NAllylGly]E-NH2) | 3.23 |

Then there is this compound:
Which measured pKd value corresponds to C[C@@H]1NC(=O)[C@H]([C@@H](C)O)NC(=O)[C@@H]2CCCN2C(=O)[C@H](CCC(=O)O)NC(=O)CN(C(=O)CCCCNC(=S)Nc2ccc3c(c2)C2(OC3=O)c3ccc(O)cc3Oc3cc(O)ccc32)C/C=C\CCCCCCN(CC(=O)N[C@@H](CCC(=O)O)C(N)=O)C(=O)[C@@H]2CCCN2C(=O)[C@@H]2CCCN2C1=O ({Fluorescein(5-NHCS)-Ava}-[X2]EPTAPP[X3]E-NH2; staple (Z) 1-8) ?
< 3.30
